// cross-study collection: IC50 for Cyclin-dependent kinase 6 (Homo sapiens, UniProt Q00534)

Example compounds with recorded IC50:
Cc1nc2sc3cnc(Nc4ccc(N5CCNCC5)cn4)nc3c2n1C(C)C	> 3000 nM
CC(C)N1C(=O)C(C)(C)Oc2cnc(Nc3ccc(N4CCNCC4)cn3)nc21	≤ 20 nM
CC(=O)c1c(C)c2cnc(Nc3ccc(C4CCN(CCCS(C)(=O)=O)CC4)cn3)nc2n(C2CCCC2)c1=O	10 to 50 nM
CCC(CC)n1c(C(C)=O)cc2cc(-c3nc(Nc4ccc(CN5CCN(C)CC5)cn4)ncc3Cl)ccc21	20 to 100 nM
Fc1cnc(Nc2ccc(CN3CCN(C4CCCCCC4)CC3)cn2)nc1-c1ccc2c(c1)c(C1CC1)cn2C1CCC1	≤ 20 nM

Entry under review: CCC(CC)n1c(C(C)C)nc2cnc(-c3nc(Nc4ccc(CN5CCN(C)CC5)cn4)ncc3F)nc21 . Reported IC50?
≤ 20 nM

Entry under review: CCN1C(=O)C(C)(CC)Oc2cnc(Nc3ccc(CN4CCN(C)CC4)cn3)nc21 (stereo not drawn) . Reported IC50?
≤ 20 nM

Entry under review: N#CC1Oc2cnc(Nc3ccc(N4CCNCC4)cn3)nc2N(C2CCCC2)C1=O (stereo not drawn) . Reported IC50?
100 to 500 nM

Entry under review: CN1CCN(c2ccc(Nc3ncc(F)c(-c4ncc5nc(C(=O)N(C)C)n(C6CCCC6)c5n4)n3)nc2)CC1 . Reported IC50?
20 to 100 nM

Entry under review: CCC(CC)N1C(=O)C(C)(C)Oc2cnc(Nc3ccc(N4CCNCC4)cn3)nc21 . Reported IC50?
20 to 100 nM

Entry under review: CC(=O)c1c2ccc(-c3nc(Nc4ccc(N5CCNCC5)cn4)ncc3F)nc2nn1C1CC1 . Reported IC50?
≤ 20 nM

Entry under review: O=C1C(C2CC2)Oc2cnc(Nc3ccc(N4CCNCC4)cn3)nc2N1C1CCCC1 (stereo not drawn) . Reported IC50?
≤ 20 nM
